Reference source: patent US6495370B1

- measurement-target: GST pi isoenzyme (Mus musculus, UniProt P19157)
- Construct: The three major mouse liver GST isoenzymes were purified according to established methods; from tissue; host or cells: liver of male CD-1 mice
- Sequence (P19157 2-210 limits assumed): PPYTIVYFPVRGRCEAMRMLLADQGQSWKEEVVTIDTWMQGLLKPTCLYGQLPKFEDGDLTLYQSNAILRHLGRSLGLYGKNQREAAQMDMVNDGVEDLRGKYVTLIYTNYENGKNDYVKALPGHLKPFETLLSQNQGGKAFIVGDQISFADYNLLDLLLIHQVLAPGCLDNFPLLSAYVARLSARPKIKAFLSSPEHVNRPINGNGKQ
- test-protocol: Kinetic constants for inhibition of GST pi isoenzyme
- Format: biochemical
- Description: Compounds 1 and 2 were synthesized and purified as described in Example 1, and GST pi isoenzyme was isolated from mouse liver as described in Example 2. Enzyme inhibition studies were performed as described in Example 3, except that four different concentrations of inhibitor were used. Enzyme assays were performed as described in Example 3.
value-kind: Ki (µM)
Please give a number only; it is taken to be in µM.

Prompt: For the molecule O=C1O/C(=C/Br)CC1CC=Cc1ccccc1 (stereo not shown) , report Ki.
Completion: 86.7
